# Assay system: Sex hormone-binding globulin (Homo sapiens)
# Sequence (whole entry): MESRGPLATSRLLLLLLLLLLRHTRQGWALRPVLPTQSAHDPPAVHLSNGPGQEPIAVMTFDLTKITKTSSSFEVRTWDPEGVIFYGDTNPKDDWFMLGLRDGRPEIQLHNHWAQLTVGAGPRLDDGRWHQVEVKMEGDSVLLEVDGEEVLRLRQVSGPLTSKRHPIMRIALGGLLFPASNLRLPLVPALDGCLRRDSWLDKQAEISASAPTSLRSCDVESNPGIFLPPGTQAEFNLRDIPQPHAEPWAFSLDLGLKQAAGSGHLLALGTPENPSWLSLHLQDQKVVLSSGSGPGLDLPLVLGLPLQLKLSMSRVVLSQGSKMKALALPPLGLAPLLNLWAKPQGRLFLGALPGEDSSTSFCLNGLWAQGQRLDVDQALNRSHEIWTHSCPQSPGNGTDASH
# Log 1/K annotations
Value type: Log 1/K

- C[C@]12CC[C@H](O)C[C@@H]1CC[C@@H]1[C@@H]2CC[C@]2(C)[C@@H](O)CC[C@@H]12: 9.11
- CC(=O)[C@H]1CC[C@H]2[C@@H]3CCC4=CC(=O)CC[C@]4(C)[C@H]3CC[C@]12C: 6.94
- C[C@]12CCC(=O)C[C@@H]1CC[C@@H]1[C@@H]2CC[C@]2(C)[C@@H](O)CC[C@@H]12: 9.74
- C[C@]12CCC(=O)C=C1CCC1C3CC[C@H](C(=O)CO)[C@@]34C[C@H](OC4O)C12 (stereo not given in full): 5.32
- C[C@]12CC[C@H]3[C@@H](CCC4=CC(=O)CC[C@@]43C)[C@@H]1CC[C@@H]2O: 9.2
- C[C@]12CC[C@H]3[C@@H](CCC4=CC(=O)CC[C@@]43C)[C@@H]1CC[C@@H]2C(=O)CO: 7.38
- CC(=O)[C@@]1(O)CC[C@H]2[C@@H]3CC=C4C[C@@H](O)CC[C@]4(C)[C@H]3CC[C@@]21C: 6.36
- C[C@]12CCC(=O)C=C1CC[C@@H]1[C@@H]2C(=O)C[C@@]2(C)[C@H]1CC[C@]2(O)C(=O)CO: 6.43
- CC(=O)[C@@]1(O)CC[C@H]2[C@@H]3CCC4=CC(=O)CC[C@]4(C)[C@H]3CC[C@@]21C: 7
- C[C@]12CC[C@@H]3c4ccc(O)cc4CC[C@H]3[C@@H]1C[C@@H](O)[C@@H]2O: 6.63

Data provenance: ChEMBL document CHEMBL1127742
